Assign Selectivity to each entry below.
# target: Beta-2 adrenergic receptor and beta-3 adrenergic receptor (Homo sapiens) (UniProt P07550+P13945)
# assayProcedure: Binding selectivity ratio for beta 3 over beta 2 AR (S beta3/beta2)
# Type: protein assay

The examples below pair each entry with its known result.
| molecularString | readoutValue |
| --- | --- |
| C[C@H](Cc1ccc(OCP(=O)(O)O)cc1)NC[C@H](O)c1cccc(Cl)c1 | 0.72 |
| C[C@H](Cc1ccc(OCS(=O)(=O)O)cc1)NC[C@H](O)c1cccc(Cl)c1 | 2.8 |
| CC(C)OP(=O)(O)COc1ccc(C[C@@H](C)NC[C@H](O)c2cccc(Cl)c2)cc1 | 2.3 |
| C[C@H](Cc1ccc(OCP(C)(=O)O)cc1)NC[C@H](O)c1cccc(Cl)c1 | 3.7 |
| C[C@H](Cc1ccc(OC(C(=O)O)C(=O)O)cc1)NC[C@H](O)c1cccc(Cl)c1 | 1.5 |

I would be grateful if you could provide Selectivity for each of the following entries.
1. COC(=O)COc1ccc(C[C@@H](C)NC[C@H](O)c2cccc(Cl)c2)cc1
2. C[C@H](Cc1ccc(OCC(=O)NO)cc1)NC[C@H](O)c1cccc(Cl)c1
3. C[C@H](Cc1ccc(OCC(N)=O)cc1)NC[C@H](O)c1cccc(Cl)c1
4. C[C@H](Cc1ccc(OCCO)cc1)NC[C@H](O)c1cccc(Cl)c1

Given back:
1. 0.0028
2. 0.057
3. 0.046
4. 0.12
